# Method: Pharmacokinetics in male Sprague Dawley rats
# Format: in vivo
# Setup conditions: male, Sprague Dawley, rat, plasma; PO 20 mg/kg vs IV 5 mg/kg; AUCinf and nominal doses used; read-out: F (bioavailability)
Measured metric: bioavailability

• C=CC(=O)Nc1cccc(-c2cnc3[nH]cc(Cl)c3c2)c1 [Example 7] = 15%

----------
# Experimental target: JAK3 (Homo sapiens (Human), UniProt P52333)
# Sequence (P52333 whole entry): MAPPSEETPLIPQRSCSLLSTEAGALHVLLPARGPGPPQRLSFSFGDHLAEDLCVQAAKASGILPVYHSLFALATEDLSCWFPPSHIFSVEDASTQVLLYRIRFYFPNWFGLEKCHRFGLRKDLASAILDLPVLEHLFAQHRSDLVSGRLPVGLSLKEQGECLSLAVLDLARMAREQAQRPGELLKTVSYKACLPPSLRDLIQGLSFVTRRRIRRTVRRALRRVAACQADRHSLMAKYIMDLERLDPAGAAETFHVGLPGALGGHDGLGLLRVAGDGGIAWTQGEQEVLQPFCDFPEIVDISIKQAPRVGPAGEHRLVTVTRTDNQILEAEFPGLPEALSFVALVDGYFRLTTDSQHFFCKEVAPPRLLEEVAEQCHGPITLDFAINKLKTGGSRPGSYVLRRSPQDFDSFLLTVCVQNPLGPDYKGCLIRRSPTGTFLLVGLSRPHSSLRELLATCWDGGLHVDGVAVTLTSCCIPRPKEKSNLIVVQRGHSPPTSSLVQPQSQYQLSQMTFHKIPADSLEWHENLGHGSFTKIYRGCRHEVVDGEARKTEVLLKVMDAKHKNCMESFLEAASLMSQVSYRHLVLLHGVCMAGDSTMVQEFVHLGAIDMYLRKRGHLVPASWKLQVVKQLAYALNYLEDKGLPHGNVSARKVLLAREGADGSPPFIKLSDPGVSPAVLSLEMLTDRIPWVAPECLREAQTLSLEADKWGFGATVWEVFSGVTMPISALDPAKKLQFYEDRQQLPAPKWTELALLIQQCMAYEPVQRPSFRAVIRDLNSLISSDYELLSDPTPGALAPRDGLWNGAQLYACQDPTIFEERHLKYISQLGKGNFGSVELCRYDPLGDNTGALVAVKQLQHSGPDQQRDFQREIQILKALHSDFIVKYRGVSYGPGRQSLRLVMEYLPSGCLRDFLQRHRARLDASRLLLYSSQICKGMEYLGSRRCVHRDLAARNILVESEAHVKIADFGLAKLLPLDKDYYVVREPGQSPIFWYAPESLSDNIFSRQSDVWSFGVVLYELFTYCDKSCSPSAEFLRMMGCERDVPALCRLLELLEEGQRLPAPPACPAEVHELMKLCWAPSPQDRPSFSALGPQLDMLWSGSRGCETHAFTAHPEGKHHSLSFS
# Method: JAK3 kinase assay (radiometric filter binding, 10 μM ATP)
# Type: biochemical
# Setup conditions: 10-dose IC50 mode, 10 μM ATP; read-out: JAK3 kinase inhibition
pIC50: −log10 of the molar value.
Measured metric: pIC50

- C=CC(=O)Nc1cc(-c2cnc3[nH]cc(-c4cc(F)cc(F)c4OC)c3c2)c(F)cc1F: < 7.00
- C=CC(=O)Nc1cccc(-c2cnc3[nH]cc(-c4cccc(C(=O)OCC)c4)c3c2)c1: > 7.00
- C=CC(=O)Nc1cccc(-c2cnc3[nH]cc(-c4cc(F)cc(F)c4OC)c3c2)n1: < 7.00
- CCC#CC(=O)Nc1cccc(-c2cnc3[nH]cc(Cl)c3c2)n1: > 7.00
- C=CC(=O)Nc1cccc(-c2cnc3[nH]cc(-c4cc(C)c(F)cc4OC)c3c2)c1: < 7.00
- CC/C=C/C(=O)Nc1cc(-c2cnc3[nH]cc(Cl)c3c2)ccc1Cl: < 6.00
- Cc1c[nH]c2ncc(-c3cccc(NC(=O)C4CCCN4)c3)cc12 (centres unmarked): < 7.00
- C#CC(=O)Nc1cccc(-c2cnc3[nH]cc(C)c3c2)c1: > 7.00

----------
# Experimental target: JAK3 (Homo sapiens (Human))
# Method: JAK3 kinase assay (radiometric filter binding, 10 μM ATP)
# Format: biochemical
# Setup conditions: 10-dose IC50 mode, 10 μM ATP; read-out: JAK3 kinase inhibition
Measured metric: IC50

• CCC#CC(=O)Nc1cccc(-c2cnc3[nH]cc(Cl)c3c2)c1 [Example 21] = < 100 nM
• C=CC(=O)Nc1cccc(-c2cnc3[nH]nc(C)c3c2)c1 [Example 1] = > 1000 nM
• C#CC(=O)Nc1cccc(-c2cnc3[nH]cc(Cl)c3c2)n1 [Example 79] = < 100 nM
• Cc1c[nH]c2ncc(-c3cccc(NC(=O)CF)c3)cc12 [Example 25] = < 100 nM
• COc1cc(F)c(C)cc1-c1c[nH]c2ncc(-c3cc(F)cc(NC(=O)/C(C)=C/C(C)(C)C)c3C)cc12 [Example 173] = < 100 nM
• C=CC(=O)Nc1cccc(-c2cnc3[nH]cc(-c4cccc(C(N)=O)c4)c3c2)c1 [Example 76] = > 100 nM
• C#CC1(C(=O)Nc2cccc(-c3cnc4[nH]cc(Cl)c4c3)c2)CC1 [Example 16] = < 100 nM
• COc1cc(F)c(C)cc1-c1c[nH]c2ncc(-c3cccc(NC(=O)/C=C/CN(C)C)c3)cc12 [Example 138] = > 100 nM
• C=CC(=O)Nc1cccc(-c2cnc3[nH]cc(-c4cc5ccccc5[nH]4)c3c2)c1 [Example 74] = > 100 nM
• CC#CC(=O)Nc1cccc(-c2cnc3[nH]ccc3c2)n1 [Example 81] = < 100 nM
• CC#CC(=O)Nc1cccc(-c2cnc3[nH]cc(C)c3c2)n1 [Example 91] = < 100 nM
• C=CC(=O)N1CCCC1C(=O)Nc1cnc2[nH]ccc2c1 (centres unmarked) [Example 69] = > 100 nM
• C=CC(=O)Nc1cc(-c2cnc3[nH]cc(Cl)c3c2)cc(F)c1F [Example 64] = > 100 nM
• Cc1n[nH]c2ncc(-c3cccc(NC(=O)/C=C/N(C)C)c3)cc12 [Example 48] = > 100 nM
• CCC#CC(=O)Nc1cccc(-c2cnc3[nH]cc(C)c3c2)c1 [Example 24] = < 100 nM
• C=CC(=O)Nc1cccc(-c2cnc3[nH]cc(-c4cc5ccc(C)cc5[nH]4)c3n2)c1 [Example 2] = > 100 nM
• CCC#CC(=O)Nc1cccc(-c2cnc3[nH]cc(-c4cccc(S(=O)(=O)N(C)C(C)(C)C)c4)c3c2)c1 [Example 32] = < 100 nM
• C#CC(=O)Nc1cccc(-c2cnc3[nH]cc(-c4cc(F)cc(F)c4OC)c3c2)c1 [Example 98] = > 100 nM
• CC#CC(=O)Nc1cc(-c2cnc3[nH]cc(Cl)c3c2)ccc1F [Example 88] = < 100 nM
• CCC#CC(=O)Nc1cccc(-c2cnc3[nH]cc(-c4cccc(S(=O)(=O)N(C)C(C)(C)C)c4)c3n2)c1 [Example 96] = > 100 nM
• C=CC(=O)Nc1cccc(-c2cnc3[nH]cc(-c4cc(F)cc(F)c4OC)c3c2)c1 [Example 30] = < 100 nM
• O=C(CF)Nc1cccc(-c2cnc3[nH]cc(Cl)c3c2)c1 [Example 22] = < 100 nM
• C=CC(=O)Nc1ccc(F)c(-c2cnc3[nH]cc(-c4cc(F)cc(F)c4OC)c3c2)c1 [Example 40] = > 100 nM
• CC#CC(=O)Nc1cc(-c2cnc3[nH]ccc3c2)ccc1F [Example 87] = < 100 nM
• C=CC(=O)Nc1cccc(-c2cnc3[nH]cc(-c4cccc(S(=O)(=O)N(C)C(C)(C)C)c4)c3c2)c1 [Example 27] = < 100 nM
• C=CC(=O)Nc1cccc(-c2cnc3[nH]cc(-c4cccc(S(=O)(=O)CC)c4)c3c2)c1 [Example 36] = > 100 nM
• C=CC(=O)Nc1cc(-c2cnc3[nH]ccc3c2)cc(F)c1F [Example 63] = > 100 nM
• COc1c(F)cc(F)cc1-c1c[nH]c2ncc(-c3cc(F)cc(NC(=O)/C(C)=C/C(C)(C)C)c3C)cc12 [Example 170] = < 100 nM
• CC#CC(=O)Nc1cccc(-c2cnc3[nH]cc(Cl)c3c2)c1 [Example 19] = < 100 nM
• CCC#CC(=O)Nc1cccc(-c2cnc3[nH]cc(C)c3c2)n1 [Example 90] = < 100 nM
• CCC#CC(=O)Nc1cccc(-c2cnc3[nH]ccc3c2)n1 [Example 78] = < 100 nM
• CC#CC(=O)Nc1cccc(-c2cnc3[nH]cc(C)c3c2)c1 [Example 23] = < 100 nM
• COc1c(F)cc(F)cc1-c1c[nH]c2ncc(-c3cccc(NC(=O)/C(C)=C/C(C)(C)C)c3)cc12 [Example 158] = < 100 nM
• C=CC(=O)Nc1cccc(-c2cnc3[nH]ccc3c2)n1 [Example 57] = < 100 nM
• CC#CC(=O)Nc1cccc(-c2cnc3[nH]cc(-c4cccc(S(=O)(=O)N(C)C(C)(C)C)c4)c3c2)c1 [Example 94] = > 100 nM

----------
# Experimental target: ITK (Homo sapiens (Human))
# Sequence (Q08881 whole entry): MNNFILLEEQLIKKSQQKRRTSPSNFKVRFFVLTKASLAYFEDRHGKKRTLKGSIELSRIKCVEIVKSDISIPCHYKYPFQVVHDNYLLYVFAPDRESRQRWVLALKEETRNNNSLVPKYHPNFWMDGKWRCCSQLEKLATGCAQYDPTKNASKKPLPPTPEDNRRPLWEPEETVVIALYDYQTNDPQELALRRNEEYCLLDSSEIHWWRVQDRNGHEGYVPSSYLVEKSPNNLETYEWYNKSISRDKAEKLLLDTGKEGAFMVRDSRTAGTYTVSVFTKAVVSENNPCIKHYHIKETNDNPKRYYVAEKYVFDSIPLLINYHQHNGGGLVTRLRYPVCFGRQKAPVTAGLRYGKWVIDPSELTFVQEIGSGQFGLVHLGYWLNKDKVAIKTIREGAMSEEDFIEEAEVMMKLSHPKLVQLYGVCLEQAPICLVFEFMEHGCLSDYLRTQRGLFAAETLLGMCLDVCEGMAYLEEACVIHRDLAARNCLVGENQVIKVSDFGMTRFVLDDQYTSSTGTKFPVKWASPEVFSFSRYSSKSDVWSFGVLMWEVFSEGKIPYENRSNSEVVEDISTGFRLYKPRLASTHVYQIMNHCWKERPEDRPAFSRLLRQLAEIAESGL
# Method: ITK kinase assay (radiometric filter binding, 10 μM ATP)
# Format: biochemical
# Setup conditions: 10-dose IC50 mode, 10 μM ATP; read-out: ITK kinase inhibition
Overview of reported IC50 across a group of compounds:
Measured metric: IC50

* CN(C)/C=C/C(=O)Nc1cccc(-c2cnc3[nH]cc(Cl)c3c2)c1 | > 1000 nM
* C=CC(=O)Nc1cccc(-c2cnc3[nH]cc(-c4cccc(S(=O)(=O)N(C)C)c4)c3c2)c1 | > 100 nM
* C=CC(=O)Nc1cccc(-c2cnc3[nH]cc(-c4cc(F)cc(F)c4OC)c3c2)c1 | < 100 nM
* C=CC(=O)N1CCCC1C(=O)Nc1cccc(-c2cnc3[nH]cc(Cl)c3c2)c1 (stereo not shown) | > 100 nM
* CCC#CC(=O)Nc1cccc(-c2cnc3[nH]cc(-c4cccc(S(=O)(=O)N(C)C(C)(C)C)c4)c3n2)c1 | > 100 nM
* C=CC(=O)Nc1cc(-c2cnc3[nH]cc(-c4cc(F)cc(F)c4OC)c3c2)ccc1F | > 100 nM
* C=CC(=O)Nc1cccc(-c2cnc3[nH]cc(-c4cc(C)c(F)cc4OC)c3c2)c1 | > 1000 nM
* C=CC(=O)Nc1ccc(F)c(-c2cnc3[nH]cc(-c4cc(F)cc(F)c4OC)c3c2)c1 | > 100 nM
* COc1c(F)cc(F)cc1-c1c[nH]c2ncc(-c3cc(F)cc(NC(=O)/C=C/CN(C)C)c3C)cc12 | < 100 nM
* C=CC(=O)Nc1cccc(-c2cnc3[nH]cc(-c4cc(F)cc(F)c4OC)c3c2)n1 | > 100 nM
* C=CC(=O)Nc1ccc(-c2cnc3[nH]cc(Cl)c3c2)cc1F | > 1000 nM
* CN(C)C/C=C/C(=O)Nc1cccc(-c2cnc3[nH]cc(Cl)c3c2)c1 | > 100 nM
* C=CC(=O)Nc1cccc(-c2cnc3[nH]cc(-c4cccc(S(C)(=O)=O)c4)c3c2)c1 | > 100 nM
* C=CC(=O)Nc1ccccc1-c1cnc2[nH]cc(C)c2c1 | > 1000 nM
* CCC#CC(=O)Nc1cc(-c2cnc3[nH]cc(Cl)c3c2)ccc1F | > 100 nM
* Cc1n[nH]c2ncc(-c3cccc(NC(=O)/C=C/N(C)C)c3)cc12 | > 100 nM
* C=CC(=O)Nc1cc(-c2cnc3[nH]cc(C)c3c2)ccc1Cl | > 100 nM
* COc1cc(F)c(C)cc1-c1c[nH]c2ncc(-c3cccc(NC(=O)/C=C/CN(C)C)c3)cc12 | > 100 nM
* C=CC(=O)Nc1cccc(-c2cnc3[nH]cc(Cl)c3c2)n1 | > 100 nM
* CCC#CC(=O)Nc1cccc(-c2cnc3[nH]cc(C)c3c2)c1 | > 100 nM
* Cc1c[nH]c2ncc(-c3cccc(NC(=O)C4CCCN4)c3)cc12 (stereo not shown) | > 100 nM
* C#CC(=O)Nc1cc(-c2cnc3[nH]cc(C)c3c2)ccc1F | < 100 nM
* C=CC(=O)Nc1cccc(-c2cnc3[nH]cc(-c4cccc(F)c4OC)c3c2)c1 | < 100 nM
* C=CC(=O)Nc1cccc(-c2cnc3[nH]nc(C)c3c2)c1 | > 1000 nM
* O=C(Nc1cccc(-c2cnc3[nH]cc(Cl)c3c2)c1)C1CCCN1 (stereo not shown) | > 100 nM
* C#CC(=O)Nc1cc(-c2cnc3[nH]ccc3c2)ccc1F | > 1000 nM
* CC#CC(=O)Nc1cccc(-c2cnc3[nH]ccc3c2)n1 | < 100 nM
* C=CC(=O)Nc1cc(-c2cnc3[nH]nc(C)c3c2)ccc1Cl | > 100 nM
* CCC#CC(=O)Nc1cccc(-c2cnc3[nH]cc(Cl)c3c2)n1 | < 100 nM
* C=CC(=O)Nc1cccc(-c2cnc3[nH]cc(-c4cccc(S(=O)(=O)N(C)C(C)(C)C)c4)c3c2)c1 | < 100 nM
* C=CC(=O)Nc1cccc(-c2cnc3[nH]cc(-c4cccc(C(N)=O)c4)c3c2)c1 | > 100 nM
